Where do the numbers come from? From the supplement of paper PMC10899765.

Please go through the items and note down their 5+ nucleoli phenotype percent effect.
test system: MCF10A; test: 5+ nucleoli phenotype percent effect (relative to siNT 0% and siKIF11 100%); higher = more cells with five or more nucleoli; conditions: 20 nM; 72 h
Numbers only, in %.

Solved entries:
# SEQUENCE_CONTENT, U, 5+ nucleoli phenotype percent effect
data = [
    ("CUAUAUAUCAAACAUAUUCCU [hsa-miR-190a-3p]", "%", 35.7),
    ("UCGCAGACAGGGACACAUGGAGA [hsa-miR-6767-5p]", "%", 0.353),
    ("UUAGUGCAUAGUCUUUGGUCU [hsa-miR-4671-3p]", "%", 47.6),
    ("UCAGUCACAUAUCUAGUGUCUA [hsa-miR-4704-3p]", "%", 10.1),
    ("GCUGGUGCAAAAGUAAUGGCGG [hsa-miR-548q]", "%", -16.7),
]

# context switch: different sequence, same 5+ nucleoli phenotype percent effect
Lab book: 5+ nucleoli phenotype percent effect of UGACCCCUUCUGUCUCCCUAG [hsa-miR-6846-3p] noted as 10.3

###

test system: MCF10A; test: one-nucleolus phenotype percent effect (relative to siNT 0% and siNOL11 100%); higher = more cells with one nucleolus (ribosome biogenesis inhibition); conditions: 20 nM; 72 h
one-nucleolus phenotype percent effect of -20% or higher: Yes. Under -20%: No.

# SEQUENCE_CONTENT, GROUP_LABEL
records = [
    ("UCGUACCGUGAGUAAUAAUGCG [hsa-miR-126-3p]", "Yes"),
    ("UACCCAGAGCAUGCAGUGUGAA [hsa-miR-1912]", "Yes"),
    ("GCAGAGUGCAAACAAUUUUGAC [hsa-miR-759]", "No"),
]

Lookup: Please check the record AGUUGCCUUUUUGUUCCCAUGC [hsa-miR-4423-5p] and state if its one-nucleolus phenotype percent effect is at or above -20%.
Found: No

Lookup: Check if one-nucleolus phenotype percent effect >= -20% (inclusive). Item: AAAAGUAAUCGCGGUUUUUGUC [hsa-miR-548h-5p]
Found: Yes

Lookup: Form field: one-nucleolus phenotype percent effect at least -20%? Entry: UCUGUAUUCUCCUUUGCCUGCAG [hsa-miR-4742-3p]
Found: Yes

Lookup: Kindly determine if one-nucleolus phenotype percent effect recorded for UGAGGGUGUCAGCAGGUGACG [hsa-miR-6804-5p] is above or exactly -20%.
Found: Yes

Lookup: Is one-nucleolus phenotype percent effect at least -20%? Consider GAACCCAUGAGGUUGAGGCUGCAGU [hsa-miR-1273d]
Found: Yes

Lookup: hey, is one-nucleolus phenotype percent effect for this one >= -20%? UGCGCCUCGGGUGAGCAUG [hsa-miR-668-5p]
Found: Yes

Lookup: Determine whether this sequence has one-nucleolus phenotype percent effect no lower than -20%: AAAGUGCAUCCUUUUAGAGUGU [hsa-miR-519a-3p]
Found: Yes

Lookup: Please check the record GCUCCCUCUAGGGUCGCUCGGA [hsa-miR-4469] and state if its one-nucleolus phenotype percent effect is at or above -20%.
Found: No

###

system: MCF10A; assay: 5+ nucleoli phenotype percent effect (relative to siNT 0% and siKIF11 100%); higher = more cells with five or more nucleoli; conditions: 20 nM; 72 h
RECORDED_ENDPOINT: 5+ nucleoli phenotype percent effect (%)
Numbers only, in %.

# SEQUENCE_CONTENT, RECORDED_ENDPOINT, VAL
data = [
    ("CCCAGUGUUUAGACUAUCUGUUC [hsa-miR-199b-5p]", "5+ nucleoli phenotype percent effect", 26.5),
    ("AAAAGUAAUUGCGAGUUUUACC [hsa-miR-548a-5p]", "5+ nucleoli phenotype percent effect", 9.73),
]

Hey, can you go through the list below and give me 5+ nucleoli phenotype percent effect for every item?
1. ACUGGCUAGGGAAAAUGAUUGGAU [hsa-miR-664a-5p]
2. AACCUUGGCCCCUCUCCCCAG [hsa-miR-6813-3p]
3. GUGGCUGCACUCACUUCCUUC [hsa-miR-647]
4. CGUCCCACCCCCCACUCCUGU [hsa-miR-4433-5p]
5. AGGAUUUCAGAAAUACUGGUGU [hsa-miR-3167]

Found:
1: 8.84; 2: 67.7; 3: -9.97; 4: 25.6; 5: -10.4

###

test system: MCF10A; experiment: percent viability (nuclei count relative to siNT); higher = more viable cells; conditions: 20 nM; 72 h
Criterion: percent viability strictly under 50%. Met: yes (1). Not met: no (0).

Would you please look over these solved cases?
# SEQUENCE_CONTENT, GROUP_LABEL
records = [
    ("AGACCCUGGUCUGCACUCUAUC [hsa-miR-504]", "no (0)"),
    ("CUUGCCAUCCUGGUCCACUGCAU [hsa-miR-4776-3p]", "yes (1)"),
    ("CAGUGCAAUGUUUUCCUU [hsa-miR-4295]", "no (0)"),
    ("GCGGAGAGAGAAUGGGGAGC [hsa-miR-5739]", "no (0)"),
    ("CUCCUAUAUGAUGCCUUUCUUC [hsa-miR-337-3p]", "no (0)"),
]

Moving on to the next sequence.
Lookup: Lab note: confirm whether the reported percent viability for this sequence is below 50%, equality not counting. sequence: UGAGAGUGGAAUUCACAGUAUUU [hsa-miR-4693-3p]
Found: yes (1)

###

Exercise: for every item that follows, state its recorded 5+ nucleoli phenotype percent effect.
test system: MCF10A; assay: 5+ nucleoli phenotype percent effect (relative to siNT 0% and siKIF11 100%); higher = more cells with five or more nucleoli; details: 20 nM; 72 h
Give bare numbers, in %.

# SEQUENCE_CONTENT, RECORDED_ENDPOINT, VAL
measured = [
    ("CUCAAGUAGUCUGACCAGGGGA [hsa-miR-4465]", "5+ nucleoli phenotype percent effect", 21.6),
    ("AAGGAGAUGCUCAGGCAGAU [hsa-miR-6888-5p]", "5+ nucleoli phenotype percent effect", -54),
    ("UUUGUUCGUUCGGCUCGCGUGA [hsa-miR-375]", "5+ nucleoli phenotype percent effect", 5.82),
    ("UCGGAUCCGUCUGAGCUUGGCU [hsa-miR-127-3p]", "5+ nucleoli phenotype percent effect", -26.8),
    ("CUCUAGCCACAGAUGCAGUGAU [hsa-miR-1287-3p]", "5+ nucleoli phenotype percent effect", -37.2),
    ("UGCGACAUUGGAAGUAGUAUCA [hsa-miR-3683]", "5+ nucleoli phenotype percent effect", -3.56),
    ("UAGGAUUACAAGUGUCGGCCAC [hsa-miR-3159]", "5+ nucleoli phenotype percent effect", -4.52),
    ("CUCAUCUGCAAAGAAGUAAGUG [hsa-miR-452-3p]", "5+ nucleoli phenotype percent effect", -40.5),
    ("CCCCUGGGGCUGGGCAGGCGGA [hsa-miR-6791-5p]", "5+ nucleoli phenotype percent effect", 45.9),
    ("AGAGAUGAAGCGGGGGGGCG [hsa-miR-6088]", "5+ nucleoli phenotype percent effect", 6.48),
]

State the recorded 5+ nucleoli phenotype percent effect for every item in the following list.
1. CCACCGGGGGAUGAAUGUCAC [hsa-miR-181d-3p]
2. GUGGGUAGGGUUUGGGGGAGAGCG [hsa-miR-1229-5p]
3. ACUGGACUUGGAGUCAGAAGG [hsa-miR-378a-3p]

Found:
1. -15.9
2. 53.7
3. 22.6

Dear reader, for each entry below, please note its 5+ nucleoli phenotype percent effect.
1. AUUAGGUAGUGGCAGUGGAAC [hsa-miR-6509-5p]
2. CUGAAUAGCUGGGACUACAGGU [hsa-miR-5585-3p]
3. CUGGGAGGUGUGAUAUUGUGGU [hsa-miR-3689b-3p]
4. AACUCACGAAGUAUACCGAAGU [hsa-miR-4798-3p]
5. UCGUUUGCCUUUUUCUGCUU [hsa-miR-1282]
6. UUCAACGGGUAUUUAUUGAGCA [hsa-miR-95]

Found:
6.73
16.9
-12.6
11.4
5.62
9.5

Dear colleague, could you send me 5+ nucleoli phenotype percent effect for each of the items below? Thanks.
1. CCCAGUGUUCAGACUACCUGUUC [hsa-miR-199a-5p]
2. UGUUCAUUGGAACCCUGCGCAG [hsa-miR-6853-3p]
3. GGGGUUCCUGGGGAUGGGAUUU [hsa-miR-23a-5p]

Found:
[-30.3, 29, 40.3]

Quick batch: 5+ nucleoli phenotype percent effect for everything below.
1. AGGGGUGUGGAAAGAGGCAGAACA [hsa-miR-6747-5p]
2. ACCUUGCAUCUGCAUCCCCAG [hsa-miR-6841-3p]
3. CACUGUUUCCUUUCUGAGUGGA [hsa-miR-892c-3p]
4. ACGGAGACGACAAGACUGUGCUG [hsa-miR-5091]
5. ACUCAUUCUCCUCUGUCCAG [hsa-miR-6758-3p]
6. GAACUCACCCUCUGCUCCCAG [hsa-miR-6750-3p]

Found:
1. 37.7
2. -39.3
3. -29.1
4. -11.8
5. 81.4
6. 29.7
